# Test system: Puccinia triticina
# test method notes: In vivo preventive test on Puccinia triticina (wheat)
# study conditions: preventive spray, 500 ppm of active ingredient, evaluated 8 days after inoculation
Decision: Efficacy >= 80% yields Criterion met, all other cases yield Criterion not met.

Look over these answered cases.
# compound, class assignment
measured = [
    ("Cn1nc(C(F)F)c(C(=O)N(Cc2c(Cl)cccc2C(F)(F)F)C2CCC2)c1F [Example 90]", "Criterion met"),
    ("C#CCN(Cc1ccccc1[Si](C)(C)C)C(=O)c1c(C(F)F)nn(C)c1F [Example 101]", "Criterion met"),
    ("Cn1nc(C(F)F)c(C(=O)N(Cc2ncc(Cl)cc2Cl)C2CCCC2)c1Cl [Example 184]", "Criterion not met"),
    ("CCN(Cc1ccccc1C(C)C)C(=O)c1c(C(F)F)nn(C)c1F [Example 68]", "Criterion not met"),
]

Next:
Qu. Hello, I need to know if Cn1nc(C(F)F)c(C(=O)N(Cc2ccccc2[Si](C)(C)C)C2CCC2)c1F [Example 98] has measured Efficacy not below 80%. Thanks!
Ans. Criterion met
